Tested on: HIV-1NL4-3
Procedure summary: HIV-1 infectivity assay in TZM-bl reporter cell line (LTR-luciferase, 48 h)
Type: cell-based
Conditions: Human immunodeficiency virus 1, TZM-bl, 48 h, Table 2; TZM-bl cells, 1 μM, 48 h; 100% = Nef-defective HIV-1; read-out: HIV-1 Infectivity % Inhibition Norm. to Δ-Nef @ 1 μM
Measured quantity: inhibition at 1 µM (%)
Unit % implied. Number only.

Use these answered entries as a reference point.
Oc1c(CC2CCOCC2)c(C2CC2)nn1-c1cc(C(F)(F)F)n[nH]1    4.9
Oc1c(CCc2ccncc2)c(-c2cccc(F)c2)nn1-c1cc(C(F)(F)F)n[nH]1    47.9

-- ask # input molecule: `CS(=O)(=O)c1ccc(-c2nn(-c3cc(C(F)(F)F)n[nH]3)c(O)c2CCC2CCOCC2)cc1` ; wanted: its inhibition at 1 µM
-- reply 65.7

-- ask Follow-up entry: `O=C(O)c1ccc(CCc2c(-c3ccccc3)nn(-c3cc(C(F)(F)F)n[nH]3)c2O)cc1`
-- reply 0

-- ask Follow-up entry: `Oc1c(CC2CCOCC2)c(C2CCOCC2)nn1-c1cc(C(F)(F)F)n[nH]1`
-- reply 42.4

-- ask Follow-up entry: `Oc1c(CCc2ccc(F)cc2)c(C2CCOCC2)nn1-c1cc(C(F)(F)F)n[nH]1`
-- reply 17.4

-- ask Follow-up entry: `Oc1c(CCc2ccc(F)cc2)c(-c2ccc(C(F)(F)F)cc2)nn1-c1cc(C(F)(F)F)n[nH]1`
-- reply 67.6

-- ask Follow-up entry: `CS(=O)(=O)c1cccc(-c2nn(-c3cc(C(F)(F)F)n[nH]3)c(O)c2CCC2CCOCC2)c1`
-- reply 5.3

-- ask Follow-up entry: `CS(=O)(=O)c1ccc(-c2nn(-c3cc(C(F)(F)F)n[nH]3)c(O)c2CCc2ccc(F)cc2)cc1`
-- reply 57.8

-- ask Follow-up entry: `Oc1c(CCc2ccc(F)cc2)c(-c2ccc(C(F)(F)F)cn2)nn1-c1cc(C(F)(F)F)n[nH]1`
-- reply 73.8

-- ask Follow-up entry: `Nc1c(CCC2CCOCC2)c(-c2ccc(F)cc2)nn1-c1cc(C(F)(F)F)n[nH]1`
-- reply 8.7

-- ask Follow-up entry: `Oc1c(CCc2ccc(F)cc2)c(-c2ccc(C(F)(F)F)cc2)nn1-c1cc(C2CC2)n[nH]1`
-- reply 0

====

System: HIV-1 NefNL4-3 (Human immunodeficiency virus type 1 group M subtype B, UniProt P03406, A33V/T15A/T51N/V11I)
Procedure summary: Surface plasmon resonance binding to recombinant full-length Nef (NL4-3)
Form field: Kd (one value per entry).
Unit nM implied. Number only.

CS(=O)(=O)N1CCC(c2nn(-c3nc4cc(Cl)ccc4[nH]3)c(O)c2CCC2CCOCC2)CC1    1170
CC(C)(C)c1nn(-c2nc3ccccc3[nH]2)c(O)c1CCc1ccc(F)cc1    702
CC(C)(C)OC(=O)N1CCC(c2nn(-c3nc4cccnc4[nH]3)c(O)c2CCc2ccc(F)cc2)CC1    283
Oc1c(CCC2CCNCC2)c(-c2ccc(C(F)(F)F)cc2)nn1-c1nc2ccccc2[nH]1    554
Oc1c(CCN2CCOCC2)c(-c2ccc(C(F)(F)F)cc2)nn1-c1nc2ccccc2[nH]1    1360

-- ask # input compound: `CS(=O)(=O)c1ccc(-c2nn(-c3nc4cc(F)ccc4[nH]3)c(O)c2CCC2CCOCC2)cc1` ; wanted: its Kd
-- reply 465

-- ask Follow-up entry: Oc1c(CC2CCCCO2)c(-c2ccc(C(F)(F)F)cc2)nn1-c1nc2ccccc2[nH]1 (stereo not drawn)
-- reply 1240

-- ask Follow-up entry: `Oc1c(CCc2ccc(F)cc2)c(C2CCN(Cc3ccncc3)CC2)nn1-c1nc2ccccc2[nH]1`
-- reply 90.8

-- ask Follow-up entry: `Oc1c(CC2CCOCC2)c(C2CC2)nn1-c1nc2ccccc2[nH]1`
-- reply 1370

-- ask Follow-up entry: `Oc1c(CCc2ccc(F)cc2)c(-c2ccncc2)nn1-c1nc2ccccc2[nH]1`
-- reply 3350

-- ask Follow-up entry: `CC(C)OC(=O)N1CCC(c2nn(-c3nc4ccccc4[nH]3)c(O)c2CC2CCOCC2)CC1`
-- reply 3290

-- ask Follow-up entry: `Oc1c(CCc2ccc(F)cc2)c(-c2ccc(C(F)(F)F)cn2)nn1-c1nc2cccnc2[nH]1`
-- reply 3610

-- ask Follow-up entry: `O=C(O)c1ccc(-c2nn(-c3nc4ccccc4[nH]3)c(O)c2CCc2ccc(F)cc2)cc1`
-- reply 376

-- ask Follow-up entry: `CC(C)(C)OC(=O)N1CCC(c2nn(-c3nc4ccccc4[nH]3)c(O)c2Cc2ccc(F)c(F)c2)CC1`
-- reply 821

-- ask Follow-up entry: `Oc1c(CCc2ccc(F)cc2)c(C2CCNCC2)nn1-c1nc2ccc(Cl)cc2[nH]1`
-- reply 256
